Test system: c-myc in 22RV-1 cells
experiment: Human c-myc ELISA assay
Assay type: cell-based
condition description: Homo sapiens, 22Rv1, 18 h, read-out: Degradation of BRD4: Maximum inhibition (%) c-Myc ELISA in 22RV1 cells
Experimental: 22RV-1 cells are seeded at 30,000 cells/well at a volume of 75 μL/well in RPMI+10% FBS media in 96-well plates and grown overnight at 37 C. Cells are dosed with compounds at 4× concentration diluted in 0.4% DMSO; compounds are serially diluted 1:3 for 8-point dose curve. 25 ul of compounds is added to cells for a final concentration starting at 300 nM-0.3 nM or 1 uM-1 nM in 0.1% DMSO and incubated for 18 hrs. […] Data is analyzed and plotted using GraphPad Prism software. […]
# Emax values compiled below
Write the answer as a number in %, unit excluded.

What value of measured Emax is listed for Cc1ncsc1-c1ccc([C@H](C)NC(=O)[C@@H]2C[C@@H](O)CN2C(=O)[C@@H](NC(=O)CCc2cc(F)cc(O[C@H]3C[C@H](NC(=O)C[C@@H]4N=C(c5ccc(Cl)cc5)c5c(sc(C)c5C)-n5c(C)nnc54)C3)c2)C(C)(C)C)cc1 ?
98

What value of measured Emax is listed for Cc1sc2c(c1C)C(c1ccc(Cl)cc1)=N[C@@H](CC(=O)N[C@H]1C[C@H](Oc3ccc(CC(=O)N[C@H](C(=O)N4C[C@H](O)C[C@H]4C(=O)N[C@H](C)c4ccc(S(C)(=O)=O)cc4)C(C)(C)C)cc3)C1)c1nnc(C)n1-2 ?
21

What value of measured Emax is listed for Cc1ncsc1-c1ccc(CNC(=O)[C@@H]2C[C@@H](O)CN2C(=O)[C@H](c2cc(OCCN3CC[C@H](NC(=O)C[C@@H]4N=C(c5ccc(Cl)cc5)c5c(sc(C)c5C)-n5c(C)nnc54)C3)no2)C(C)C)cc1 ?
18

What value of measured Emax is listed for Cc1ncsc1-c1ccc([C@H](C)NC(=O)[C@@H]2C[C@@H](O)CN2C(=O)[C@@H](NC(=O)Cc2ccc(-c3cn([C@H](C)CNC(=O)C[C@@H]4N=C(c5ccc(Cl)cc5)c5c(sc(C)c5C)-n5c(C)nnc54)cn3)cc2)C(C)(C)C)cc1 ?
92.2

What value of measured Emax is listed for Cc1ncsc1-c1ccc([C@H](C)NC(=O)[C@@H]2C[C@@H](O)CN2C(=O)[C@@H](NC(=O)CN2CCN(C3CC4(C3)CN(C(=O)C[C@@H]3N=C(c5ccc(Cl)cc5)c5c(sc(C)c5C)-n5c(C)nnc53)C4)C[C@H]2C)C(C)(C)C)cc1 ?
100

What value of measured Emax is listed for Cc1ncsc1-c1ccc([C@H](C)NC(=O)[C@@H]2C[C@@H](O)CN2C(=O)[C@@H](NC(=O)CN2CCC(N3CCCN(C(=O)C[C@@H]4N=C(c5ccc(Cl)cc5)c5c(sc(C)c5C)-n5c(C)nnc54)CC3)CC2)C(C)(C)C)cc1 ?
88

What value of measured Emax is listed for Cc1ncsc1-c1ccc([C@H](C)NC(=O)[C@@H]2C[C@@H](O)CN2C(=O)[C@@H](NC(=O)c2cc3cc(OCCCNC(=O)C[C@@H]4N=C(c5ccc(Cl)cc5)c5c(sc(C)c5C)-n5c(C)nnc54)ccc3o2)C(C)(C)C)cc1 ?
97

What value of measured Emax is listed for Cc1ncsc1-c1ccc([C@H](C)NC(=O)[C@@H]2C[C@@H](OC(=O)[C@@H](N)C(C)C)CN2C(=O)[C@@H](NC(=O)c2cc3cc(O[C@H]4C[C@@H](NC(=O)C[C@@H]5N=C(c6ccc(Cl)cc6)c6c(sc(C)c6C)-n6c(C)nnc65)C4)ccc3o2)C(C)(C)C)cc1 ?
100

What value of measured Emax is listed for Cc1ncsc1-c1ccc(CNC(=O)[C@@H]2C[C@@H](O)CN2C(=O)[C@@H](NC(=O)COCCCCOc2ccc3c(c2)c2c(C(N)=O)cc(-c4c(C)noc4C)cc2n3Cc2ccccc2)C(C)(C)C)cc1 ?
92

What value of measured Emax is listed for Cc1ncsc1-c1ccc([C@H](C)NC(=O)[C@H]2C[C@H](O)CN2C(=O)[C@@H](NC(=O)COCCCOCCNC(=O)C[C@@H]2N=C(c3ccc(Cl)cc3)c3c(sc(C)c3C)-n3c(C)nnc32)C(C)(C)C)cc1 ?
10.2
